Data provenance: the supplement of paper PMC10567573

assay-info: protein stability index of a GFP-peptide fusion (GPS, HEK-293T) (PSI 1-6); higher = more stable;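 note: 24-mer peptide tiles fused after GFP, lentivirally expressed, FACS-sorted into six equal bins by GFP/DsRed ratio, decoded by Illumina sequencing, PSI is the read-weighted mean bin number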
details: treatment: DMSO; c terminus: a fixed tail appended
value-kind: protein stability index
Lab note: jot down the number only; don't add units.

Below: 3 sequences and their reported protein stability index.
>  <sequence-content>
QGPGGDEDDDEEDTDKLLNSASDP [PSD2]

>  <recorded-result>
5.59

$$$$
>  <sequence-content>
VTGETRVLSSTTLLPRQPLPLGIK [PALM]

>  <recorded-result>
3.66

$$$$
>  <sequence-content>
MWLTPLHRAVASRSEEAVQVLIKH [ANKRD44]

>  <recorded-result>
2.29

$$$$

Moving on to another sequence below.
The measured protein stability index associated with NVSTKEGIHLALVELLKNLTKYPT [INTS4] reads 2.53

====

assay-info: protein stability index of a GFP-peptide fusion (GPS, HEK-293T) (PSI 1-6); higher = more stable
details: treatment: DMSO; c terminus: a fixed tail appended
value-kind: protein stability index
Lab note: jot down the number only; don't add units.

>  <sequence-content>
TLDGRTPLHLAAQRGHYRVARILI [RIPK4]

>  <protein stability index>
1.97

$$$$

The measured protein stability index associated with LEVPKPGQPSEPEHGPSPGQDTFC [CHIT1] reads 5.22

The measured protein stability index associated with VKDDDRLTFHRHPVAQSTDGIRGK [SPSB4] reads 4.89

The measured protein stability index associated with LESRIRDVHELFLQMAVLVEKQAD [STX11] reads 2.27

The measured protein stability index associated with AGLASGLLNQQSLKRSANQMGVSA [MED27] reads 3.62

The measured protein stability index associated with LHSSILTCTLLLLYSLAPTMGAVV [MFSD9] reads 3.36

The measured protein stability index associated with ESSVPVTPSVPPPASQHSTPAGLP [FBF1] reads 5.04

The measured protein stability index associated with MRNLKASLENSLREVEARYALQME [KRT18] reads 3.22

====

assay-info: protein stability index of a GFP-peptide fusion (GPS, HEK-293T) (PSI 1-6); higher = more stable
details: treatment: DMSO; c terminus: a fixed tail appended
Param threshold (3) applies to protein stability index; output yes (1) when value >= threshold, no (0) when value < threshold.

Example entries begin here.
>  <sequence-content>
DEAGGGAEGDSWEEEGFGSSSPVK [WEE1]

>  <category-label>
yes (1)

$$$$
>  <sequence-content>
NQSFNIVDIKPANMEELTEVITAA [PPP2R2B]

>  <category-label>
yes (1)

$$$$

Prompt line: Tell me whether protein stability index is at least 3 here: KENQDIRLLQAQLQAQKEELQSLM [PBXIP1]
Response line: yes (1)

Prompt line: Tell me whether protein stability index is at least 3 here: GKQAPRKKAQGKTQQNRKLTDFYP [KMT5A]
Response line: yes (1)

====

assay-info: protein stability index of a GFP-peptide fusion (GPS, HEK-293T) (PSI 1-6); higher = more stable
details: treatment: DMSO; c terminus: a fixed tail appended
Param threshold (4) applies to protein stability index; output class 1 when value >= threshold, class 0 when value < threshold.

Example entries begin here.
>  <sequence-content>
ASADRTVIVWDGDTTRQVQRISCF [WDR41]

>  <category-label>
class 0

$$$$
>  <sequence-content>
EGTSSIVMEIQKQIEKKEKKLHKI [TAF7L]

>  <category-label>
class 1

$$$$
>  <sequence-content>
KLTDFGFAKKLVDRTWTLCGTPEY [PRKX]

>  <category-label>
class 0

$$$$
>  <sequence-content>
DIDMTDYDDVRRCCSSADICPKCW [PRIM1]

>  <category-label>
class 1

$$$$
>  <sequence-content>
RRMTVVGRLEGLIQPDDLINQLTF [FAF2]

>  <category-label>
class 0

$$$$
>  <sequence-content>
DLYRDVMLENYSNLVSVGYQAGKP [ZNF649]

>  <category-label>
class 0

$$$$

Prompt line: Tell me whether protein stability index is at least 4 here: LKATFSGFTKEQQRLGIPKDPRQW [ETS1]
Response line: class 0

Prompt line: Tell me whether protein stability index is at least 4 here: RRRWCPAGIMLLALVCLLSCLLPS [SPACA3]
Response line: class 0

Prompt line: Tell me whether protein stability index is at least 4 here: FLFNSELLSDVRFVLGKGRGAAAA [BTBD1]
Response line: class 0
